Tested on: CRL-7250
Test: Cytotoxic Profiling of Annotated Libraries Using Quantitative High-Throughput Screening (AID 1296008); note: nearly all actives have a fitted effect of over 60% in size
Details: Five cell lines viability, CellTiter-Glo ATP luminescence, 48-72 h
Records with an inconclusive call do not appear. Active and inactive are the calls of the source. Calls come from the whole dose curve; as a rule, active = well fitted inhibition curve with a large enough effect; inconclusive = small, poorly fitted or top-dose-only effect; inactive = flat fitted curve, though single readings scatter.
experimentalEndpoint: outcome

INSERT INTO measurements (smilesdata, experimentalendpoint, valuemeasured) VALUES
  ('CS(=O)(=O)CCNCc1ccc(-c2ccc3ncnc(Nc4ccc(OCc5cccc(F)c5)c(Cl)c4)c3c2)o1', 'outcome', 'inactive'),
  ('N[C@@H](Cc1c[nH]c2ccc(O)cc12)C(=O)O', 'outcome', 'inactive'),
  ('O=C(c1ccc(OCCN2CCCCC2)cc1)c1c(-c2ccc(O)cc2)sc2cc(O)ccc12', 'outcome', 'inactive');
